System: OCI-AML-2
ASSAY: AML cell line in vitro proliferation assay
Format: cell-based
REPORTED_CONDITIONS: Homo sapiens, OCI-AML2; OCI-AML-2, 72 h, CTG
MEASURED_ENDPOINT: IC50 (nM)
Give the quantity in nM, number only.

Ask: Returns the measured IC50 for the input compound. Input: CN1CCN(c2ccc(Nc3ncc4cc(C#N)c(=O)n(C5CCCC5)c4n3)cc2)CC1
Result: 1160

====

TEST_TARGET: ABL-1 (Homo sapiens)
Sequence (P00519 whole entry): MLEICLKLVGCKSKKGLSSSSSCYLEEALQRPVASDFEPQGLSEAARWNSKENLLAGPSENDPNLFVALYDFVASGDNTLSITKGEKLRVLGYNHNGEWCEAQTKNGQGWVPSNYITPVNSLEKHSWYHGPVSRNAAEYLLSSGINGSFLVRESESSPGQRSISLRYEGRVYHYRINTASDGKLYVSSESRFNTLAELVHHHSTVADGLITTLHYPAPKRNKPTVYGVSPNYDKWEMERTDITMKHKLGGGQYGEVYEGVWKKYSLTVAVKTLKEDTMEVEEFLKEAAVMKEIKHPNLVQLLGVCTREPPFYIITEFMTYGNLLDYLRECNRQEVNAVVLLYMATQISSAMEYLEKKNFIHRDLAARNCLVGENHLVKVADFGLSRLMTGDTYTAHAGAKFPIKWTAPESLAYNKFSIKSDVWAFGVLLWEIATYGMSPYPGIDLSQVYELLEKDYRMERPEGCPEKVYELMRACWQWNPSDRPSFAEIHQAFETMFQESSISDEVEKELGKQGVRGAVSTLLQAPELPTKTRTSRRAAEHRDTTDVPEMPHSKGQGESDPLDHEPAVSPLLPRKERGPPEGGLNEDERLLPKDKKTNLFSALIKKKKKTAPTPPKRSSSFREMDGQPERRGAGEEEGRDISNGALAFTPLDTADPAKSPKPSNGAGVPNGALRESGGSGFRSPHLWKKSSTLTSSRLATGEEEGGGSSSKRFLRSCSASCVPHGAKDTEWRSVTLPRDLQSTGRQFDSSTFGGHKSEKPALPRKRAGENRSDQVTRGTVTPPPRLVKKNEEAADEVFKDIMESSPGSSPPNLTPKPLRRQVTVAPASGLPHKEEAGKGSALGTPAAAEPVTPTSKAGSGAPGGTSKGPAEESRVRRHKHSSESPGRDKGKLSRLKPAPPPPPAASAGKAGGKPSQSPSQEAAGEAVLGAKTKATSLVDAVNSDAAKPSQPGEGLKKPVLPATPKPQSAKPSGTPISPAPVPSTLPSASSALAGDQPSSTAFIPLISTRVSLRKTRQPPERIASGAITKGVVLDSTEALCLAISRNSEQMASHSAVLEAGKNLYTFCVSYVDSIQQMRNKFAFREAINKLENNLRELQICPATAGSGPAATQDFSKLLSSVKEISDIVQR
MEASURED_ENDPOINT: pIC50
pIC50 field: float, defined as -log10 of concentration (mol/L).

Ask: What value of pIC50 has been reported for the following compound? CN1CCN(c2ccc(Nc3ncc4cc(C#N)c(=O)n(C5CCCC5)c4n3)cc2)CC1 [Narazaciclib, narazaciclib]
Result: 7.42

====

TEST_TARGET: SIK2 (Homo sapiens, UniProt Q9H0K1)
Sequence (Q9H0K1 whole entry): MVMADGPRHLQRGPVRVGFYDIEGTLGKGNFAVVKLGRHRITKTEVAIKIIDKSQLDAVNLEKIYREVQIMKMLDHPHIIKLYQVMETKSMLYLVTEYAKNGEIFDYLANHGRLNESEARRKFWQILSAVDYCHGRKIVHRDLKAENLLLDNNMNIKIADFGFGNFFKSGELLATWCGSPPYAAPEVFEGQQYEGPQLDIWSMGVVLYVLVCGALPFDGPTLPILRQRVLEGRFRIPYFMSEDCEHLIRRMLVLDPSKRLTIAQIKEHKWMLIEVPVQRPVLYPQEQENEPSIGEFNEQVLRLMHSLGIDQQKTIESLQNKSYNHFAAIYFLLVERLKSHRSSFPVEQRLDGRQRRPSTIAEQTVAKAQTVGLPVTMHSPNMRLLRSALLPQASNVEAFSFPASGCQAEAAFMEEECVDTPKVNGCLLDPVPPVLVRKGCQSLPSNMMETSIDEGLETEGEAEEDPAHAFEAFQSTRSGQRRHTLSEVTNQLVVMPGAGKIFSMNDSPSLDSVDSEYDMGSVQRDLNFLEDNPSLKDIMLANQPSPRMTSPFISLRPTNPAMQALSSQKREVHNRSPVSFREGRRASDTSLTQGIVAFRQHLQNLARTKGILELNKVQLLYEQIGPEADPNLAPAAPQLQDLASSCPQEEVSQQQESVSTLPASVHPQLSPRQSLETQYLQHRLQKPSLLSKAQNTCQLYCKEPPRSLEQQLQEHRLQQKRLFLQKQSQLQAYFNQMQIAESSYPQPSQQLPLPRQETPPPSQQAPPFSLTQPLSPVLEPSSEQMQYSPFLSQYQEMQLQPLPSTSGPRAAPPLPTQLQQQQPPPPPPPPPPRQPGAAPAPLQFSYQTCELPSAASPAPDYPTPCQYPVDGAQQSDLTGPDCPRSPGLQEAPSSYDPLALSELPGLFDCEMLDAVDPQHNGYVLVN
MEASURED_ENDPOINT: IC50
Write the quantity with the unit trailing the number.

Ask: Look up IC50 for this compound: CN1CCN(c2ccc(Nc3ncc4cc(C#N)c(=O)n(C5CCCC5)c4n3)cc2)CC1 [Narazaciclib, narazaciclib]
Result: 2 nM

====

ASSAY: Single-dose oral pharmacokinetics in non-tumor bearing mice
Type: in vivo
REPORTED_CONDITIONS: female, NOD/scid; 100 mg/kg single oral, mouse plasma; read-out: Cmax
MEASURED_ENDPOINT: Cmax (ng/mL)
The response must be a number in ng/mL with no trailing unit.

Ask: Query: Cmax; subject: CN1CCN(c2ccc(Nc3ncc4cc(C#N)c(=O)n(C5CCCC5)c4n3)cc2)CC1
Result: 1460

====

ASSAY: Single-dose oral pharmacokinetics in non-tumor bearing mice
Format: in vivo
REPORTED_CONDITIONS: female, NOD/scid; 30 mg/kg single oral, mouse plasma; read-out: CL_F (converted)
Description: In order to understand the effective anti-AML exposure of narazaciclib in mice, we conducted a preliminary pharmacokinetic (PK) analysis of a single-dose oral administration of narazaciclib, at the same dose levels as in anti-AML pharmacology study above, in non-tumor bearing mice. Following a single oral administration of narazaciclib at either 30 mg/kg or 100 mg/kg in mice, plasma samples were collected at various timepoints. The plasma concentrations of narazaciclib were analyzed by LC–MS. […]
MEASURED_ENDPOINT: CL/F (mL/min/kg)
// units = mL/min/kg; emit number, no label

Ask: Could you tell me which CL/F is on file for CN1CCN(c2ccc(Nc3ncc4cc(C#N)c(=O)n(C5CCCC5)c4n3)cc2)CC1 ?
Result: 415

====

ASSAY: Single-dose oral pharmacokinetics in non-tumor bearing mice
Format: in vivo
REPORTED_CONDITIONS: female, NOD/scid; 30 mg/kg single oral, mouse plasma; read-out: Cmax
MEASURED_ENDPOINT: Cmax (ng/mL)
Please state the figure in ng/mL; there is no need to write the unit.

Ask: What value of measured Cmax is listed for CN1CCN(c2ccc(Nc3ncc4cc(C#N)c(=O)n(C5CCCC5)c4n3)cc2)CC1 ?
Result: 469

====

Tested on: SKNO-1
ASSAY: AML cell line in vitro proliferation assay
Type: cell-based
REPORTED_CONDITIONS: SKNO-1, 72 h, CTG
MEASURED_ENDPOINT: IC50 (nM)
# number only, unit nM dropped from output

Ask: Item under review: CN1CCN(c2ccc(Nc3ncc4cc(C#N)c(=O)n(C5CCCC5)c4n3)cc2)CC1 . Reported IC50?
Result: 234
